Sourced from patent US20240261333A1

- test.system: T1, B3GNT2 (Homo sapiens, UniProt Q9NY97)
- T1 construct: The respective ORFs of candidate genes [CD274 (NM_014143), MCL1 (NM_021960), JUNB (NM_002229), and B3GNT2 (NM_006577)] were synthesized; expressed in transfected cells; host or cells: A375 melanoma cells (lentiviral ORF overexpression)
- T1 sequence (Q9NY97 1-397): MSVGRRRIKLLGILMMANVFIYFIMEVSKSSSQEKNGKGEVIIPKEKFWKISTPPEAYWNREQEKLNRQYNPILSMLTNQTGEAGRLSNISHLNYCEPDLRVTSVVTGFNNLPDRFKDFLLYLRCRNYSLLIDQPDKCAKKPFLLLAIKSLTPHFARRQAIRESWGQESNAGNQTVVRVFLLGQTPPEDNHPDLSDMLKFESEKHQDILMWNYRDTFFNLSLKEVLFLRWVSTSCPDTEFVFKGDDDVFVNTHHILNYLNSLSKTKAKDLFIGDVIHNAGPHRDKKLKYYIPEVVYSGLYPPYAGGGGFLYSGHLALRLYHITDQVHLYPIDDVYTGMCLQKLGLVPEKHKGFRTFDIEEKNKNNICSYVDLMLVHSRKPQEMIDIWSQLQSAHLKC
- test.name: Co-IP of FLAG-tagged B3GNT2 followed by mass spectrometry
- Assay type: cell-based
- Set-up: unit not given here
- settings: Co-IP followed by mass spectrometry of B3GNT2; C-term tag, FLAG pull-down
Entries and their measured C-term flag follow.

molecule	C-term flag
GGCT (protein) MANSGCKDVTGPDEESFLYFAYGSNLLTERIHLRNPSAAFFCVARLQDFKLDFGNSQGKTSQTWHGGIATIFQSPGDEVWGVVWKMNKSNLNSLDEQEGVKSGMYVVIEVKVATQEGKEITCRSYLMTNYESAPPSPQYKKIICMGAKENGLPLEYQEKLKAIEPNDYTGKVSEEIEDIIKKGETQTL	0
TIMP3 (protein) CTCSPSHPQDAFCNSDIVIRAKVVGKKLVKEGPFGTLVYTIKQMKMYRGFTKMPHVQYIHTEASESLCGLKLEVNKYQYLLTGRVYDGKMYTGLCNFVERWDQLTLSQRKGLNYRYHLGCNCKIKSCYYLPCFVTSKNECLWTDMLSNFGYPGYQSKHYACIRQKGGYCSWYRGWAPPDKSIINATDP	3
KCTD5 (protein) AENHCELLSPARGGIGAGLGGGLCRRCSAGLGALAQRPGSVSKWVRLNVGGTYFLTTRQTLCRDPKSFLYRLCQADPDLDSDKDETGAYLIDRDPTYFGPVLNYLRHGKLVINKDLAEEGVLEEAEFYNITSLIKLVKDKIRERDSKTSQVPVKHVYRVLQCQEEELTQMVSTMSDGWKFEQLVSIGSSYNYGNEDQAEFLCVVSKELHNTPYGTASEPSEKAKILQERGSRM	3
